# MFI annotations
biological target: wild-type EGFR expressed on cells (human), P00533; assay: flow cytometry, A431 cells; settings: remark: other sources report otherwise
quantity: MFI

{"binder": "20B9 (antibody, V domains shown) VH: QVTLKESGPVLVKPTETLTLTCTVSGFSLSNARMGVSWIRQPPGKALEWLGHIFSTDEKSYSTSLRGRITISKDTSRGLVVLTLTNMDPVDTATYYCARDSSNYEGYFDFWGPGFLVTVSS VL: EIVMTQSPATLSVSPGERATLSCRVSQSIGANLAWYQQKFGQAPRLLIYGASTRATGIPVRFSGGGSGTEFTLTISSLQSEDFAIYSCQQYIYWPFTFGPGTTVDIK", "quantity": "MFI", "value-reported": 558}
{"binder": "12H6 (antibody, V domains shown) VH: QVTLKESGPVLVKPTETLTLTCTVSGFSLSNARMGVSWIRQPPGKALEWLAHIFSTDEKSIRRSLRSRLTLSKDTSKSQVVLTMTNMDPVDTATYYCARDSSNYEGYFDYWGQGTLVTVSS VL: EVVMTQSPATLSVSPGERATLSCRASQGVSSNFAWYQQRPGQSPRLLLYGASTRATGVPGRFSGSGSGTENILTISSLQSEDFAIYFCQQYKDWPFTFGPGSKVDIK", "quantity": "MFI", "value-reported": 569}
{"binder": "14C11 (antibody, V domains shown) VH: QVTLKESGPVLVKPTETLTLTCTVSGFSLNNARMGVSWIRQPPGKALEWFAHIFSTDEKSFRTSLRSRLTLSKDTSKSQVVLTMTNMDPVDTATYYCARDSSNYEGYFDYWGQGILVTVSS VL: EIVMTQSPATLSVSPGERATLSCRASQSVSNNLAWYQQKPGQAPRLLIYGASTRATGVPARFSGSDSGTEFSLTISSLQSEDFAVYFCQQYKDWPFTFGPGTKVEIK", "quantity": "MFI", "value-reported": 580}

Origin of values: patent US20190144550A1
